- Test Name: Plasma pharmacokinetics of TSU-68 in phase I patients
- Assay type: in vivo, human
- Condition Info: human, plasma, oral, 200 mg/m2, C max, t.i.d. after meal, 84th dose, 200 mg/m^2, n=6, mean ± SD
Experimental Endpoint: Cmax (ng/mL)
Write the value in ng/mL as a bare number.

**Q:** # get_value(readout='Cmax', item= "Cc1[nH]c(/C=C2\C(=O)Nc3ccccc32)c(C)c1CCC(=O)O" )
**A:** 3850

----------
- Test Name: Plasma pharmacokinetics of TSU-68 in phase I patients
- Type: in vivo, human
- Condition Info: human, plasma, oral, 200 mg/m2, C max, b.i.d. after meal, 1st dose, 200 mg/m^2, n=3, mean ± SD
Experimental Endpoint: Cmax (ng/mL)
Entry rule: numbers only, all in ng/mL.

**Q:** For the compound shown here, "Cc1[nH]c(/C=C2\C(=O)Nc3ccccc32)c(C)c1CCC(=O)O" , give the reported Cmax.
**A:** 11200

----------
- Test Name: Plasma pharmacokinetics of TSU-68 in phase I patients
- Type: in vivo, human
- Condition Info: human, plasma, oral, 200 mg/m2, AUC0–t, b.i.d. after meal, 1st dose, 200 mg/m^2, n=3, mean ± SD
Experimental Endpoint: AUC(0-t)
Please report the result as a number followed by the unit.

**Q:** Would you mind telling me what AUC(0-t) value was observed for "Cc1[nH]c(/C=C2\C(=O)Nc3ccccc32)c(C)c1CCC(=O)O" ?
**A:** 55200 ng·h/mL

----------
- Test Name: Plasma pharmacokinetics of TSU-68 in phase I patients
- Format: in vivo, human
- Condition Info: human, plasma, oral, 200 mg/m2, AUC Day 28, Pt 1, Cervical ca., b.i.d. 200 mg/m^2 (800 mg/day)
Experimental Endpoint: AUC (µg·h/mL)
Numeric only. Scale: µg·h/mL

**Q:** Value lookup for AUC; key = "Cc1[nH]c(/C=C2\C(=O)Nc3ccccc32)c(C)c1CCC(=O)O"
**A:** 32.8

----------
- Test Name: Plasma pharmacokinetics of TSU-68 in phase I patients
- Type: in vivo, human
- Condition Info: human, plasma, oral, 500 mg/m2, T max, b.i.d. after meal, 56th dose, 500 mg/m^2, n=3, mean ± SD
Experimental Endpoint: Tmax (h)
Enter your answer as a number in h; do not include the unit.

**Q:** Fill blank: measured Tmax of the compound "Cc1[nH]c(/C=C2\C(=O)Nc3ccccc32)c(C)c1CCC(=O)O" is ____.
**A:** 3.17

----------
- Test Name: Plasma pharmacokinetics of TSU-68 in phase I patients
- Format: in vivo, human
- Condition Info: human, plasma, oral, 500 mg/m2, T max, b.i.d. after meal, 3rd dose, 500 mg/m^2, n=3, mean ± SD
Experimental Endpoint: Tmax (h)
Record the value in h, omitting the unit from your answer.

**Q:** What does the record list as Tmax for "Cc1[nH]c(/C=C2\C(=O)Nc3ccccc32)c(C)c1CCC(=O)O" ?
**A:** 4.33

----------
- Test Name: Plasma pharmacokinetics of TSU-68 in phase I patients
- Assay type: in vivo, human
- Condition Info: human, plasma, oral, 400 mg/m2, T max, t.i.d. after meal, 2nd dose, 400 mg/m^2, n=6, mean ± SD
Experimental Endpoint: Tmax (h)
Give a bare numeral; the unit h is implied.

**Q:** # input compound: "Cc1[nH]c(/C=C2\C(=O)Nc3ccccc32)c(C)c1CCC(=O)O" ; wanted: its Tmax
**A:** 3
